These measurements were taken from paper PMC10136548.

Test: Cytotoxicity (Cell Titer-Glo viability) in non-infected RD cells
Format: cell-based
Settings: human, non-infected RD cells (ATCC CCL-136), RD cells, highest tested concentration 100 μM
RESULT TYPE: viability at 72 h, 100 µM
Answer format: number, then unit.

The recorded viability at 72 h, 100 µM for `CC(C)S(=O)(=O)n1c(N)nc2ccc(/C(=N/O)c3ccccc3)cc21` is 20%

----------
Tested on: EV-A71 BrCr strain
Test: Viral RNA yield (RT-qPCR) in EV-A71-infected RD cells
Type: cell-based, Enterovirus A71
Details: Enterovirus A, EVA71, EV-A71 MOI 0.1, 72 h, RT-qPCR, read-out: EC50 based on RNA yield
Experimental: EV-A71 BrCr strain, a gift from Prof. F. van Kuppeveld (University of Utrecht, Utrecht, The Netherlands), was propagated in RD cells, cultured in 2% FBS-DMEM at 37 °C under 5% CO2. […] EV-A71 stock titer was determined by the 50% tissue culture infective dose (TCID50) assay (Reed and Muench, 1938). […] Figure 4 Comparison of antiviral activity determined by CPE inhibition and viral RNA yield between HIOs and RD cells. […] CPE inhibition is calculated based on percentage of mock-infected control. […]
RESULT TYPE: EC50 (nM)
All answers are understood in nM, so give the number only.

[[record]]
smiles_notation = "CC(C)S(=O)(=O)n1c(N)nc2ccc(/C(=N/O)c3ccccc3)cc21"
result_type = "EC50"
reading = 200


The recorded EC50 for `C[C@@]1(O)[C@H](O)[C@@H](CO)O[C@H]1n1ccc(N)nc1=O` is 2000

----------
Tested on: EV-A71 BrCr strain
Assay: Viral RNA yield (RT-qPCR) in EV-A71-infected HIOs
Format: cell-based, Enterovirus A71
Details: Enterovirus A, EVA71, EV-A71 MOI 0.1, 72 h, RT-qPCR, read-out: EC50 based on RNA yield
The molecules listed here are annotated with their EC50.
All answers are understood in µM, so give the number only.

[[record]]
smiles_notation = "CC(C)S(=O)(=O)n1c(N)nc2ccc(/C(=N/O)c3ccccc3)cc21"
tested_system = "EV-A71 BrCr strain"
unit = "µM"
reading = 1.4

[[record]]
smiles_notation = "CCOC(=O)/C=C/[C@H](C[C@@H]1CCNC1=O)NC(=O)[C@@H](CC(=O)[C@@H](NC(=O)c1cc(C)on1)C(C)C)Cc1ccc(F)cc1"
tested_system = "EV-A71 BrCr strain"
unit = "µM"
reading = 1.7


EV-A71 BrCr strain assay, molecule `C[C@@]1(O)[C@H](O)[C@@H](CO)O[C@H]1n1ccc(N)nc1=O` , recorded EC50 = 1.5

----------
Assay: Cytotoxicity (Cell Titer-Glo 3D viability) in non-infected HIOs
Assay type: cell-based
Conditions: human, non-infected HIOs, compounds 0.5–100 μM
RESULT TYPE: CC50 at 72 h (µM)
All answers are understood in µM, so give the number only.

[[record]]
compound = "CC(C)S(=O)(=O)n1c(N)nc2ccc(/C(=N/O)c3ccccc3)cc21 [Enviroxime, enviroxime]"
result_type = "CC50 at 72 h"
reading = 24


// next item, CC50 at 72 h requested
The recorded CC50 at 72 h for C[C@@]1(O)[C@H](O)[C@@H](CO)O[C@H]1n1ccc(N)nc1=O [2′CMC, 2′-C-methylcytidine] is 48

----------
Assay: Cytotoxicity (Cell Titer-Glo 3D viability) in non-infected HIOs
Type: cell-based
Conditions: human, HIOs, 100 µM
RESULT TYPE: viability at 72 h, 100 µM
Answer format: number, then unit.

The recorded viability at 72 h, 100 µM for `CC(C)S(=O)(=O)n1c(N)nc2ccc(/C(=N/O)c3ccccc3)cc21` is 0%

----------
The compounds listed here are annotated with their CC50 at 72 h.
Experiment: Cytotoxicity (Cell Titer-Glo viability) in non-infected RD cells
Type: cell-based
Details: human, non-infected RD cells (ATCC CCL-136), non-infected RD cells, compounds 0.5–100 μM

Examples with answers:
[[record]]
smiles_notation = "CC(C)S(=O)(=O)n1c(N)nc2ccc(/C(=N/O)c3ccccc3)cc21"
result_type = "CC50 at 72 h"
reading = "28 µM"

[[record]]
smiles_notation = "CCOC(=O)/C=C/[C@H](C[C@@H]1CCNC1=O)NC(=O)[C@@H](CC(=O)[C@@H](NC(=O)c1cc(C)on1)C(C)C)Cc1ccc(F)cc1"
result_type = "CC50 at 72 h"
reading = "> 100 µM"


The recorded CC50 at 72 h for `C[C@@]1(O)[C@H](O)[C@@H](CO)O[C@H]1n1ccc(N)nc1=O` is > 100 µM
